# assay-overview: Neurologic toxicity using rotarod test in mice after intraperitoneal administration
# Type: organism-based
# condition-label: mouse, in vivo, ip
reported-property: TD50

compound | reported-property | meas-value
COC[C@H](NC(C)=O)C(=O)NCc1ccccc1 | TD50 | > 300 mg/kg
C=CC(=O)NC(COC)C(=O)NCc1ccccc1 (racemic) | TD50 | > 300 mg/kg
COC[C@@H](NC(=O)CBr)C(=O)NCc1ccccc1 | TD50 | > 30 mg/kg
CCCC(NC(C)=O)C(=O)NCc1ccccc1 (racemic) | TD50 | 160 mg/kg
COC[C@H](NC(=O)CBr)C(=O)NCc1ccccc1 | TD50 | > 30 mg/kg
COC[C@@H](NC(C)=O)C(=O)NCc1cccc(N=C=S)c1 | TD50 | 120 mg/kg
COC[C@H](NC(C)=O)C(=O)NCc1ccc(N=C=S)cc1 | TD50 | > 30 mg/kg
COC[C@@H](NC(C)=O)C(=O)NCc1ccc(N=C=S)cc1 | TD50 | 47 mg/kg
CC(=O)NC(CCCCN=C=S)C(=O)NCc1ccccc1 (racemic) | TD50 | > 30 mg/kg
COC[C@H](NC(C)=O)C(=O)NCc1cccc(N=C=S)c1 | TD50 | > 100 mg/kg
